Tested on: rodent lifetime carcinogenesis bioassay, tumor incidence TD50
Assay: carcinogenic potency in animals, long-term in vivo studies, CPDB compilation (AID 1745844)
Conditions: mouse; strain B6C3F1; females; in feed; site: lung; lesion: alveolar/bronchiolar adenoma + alveolar/bronchiolar carcinoma; dosed 104 weeks; study length 104 weeks
endpoint-label: TD50 (mg/kg/day)
// units = mg/kg/day; emit number, no label

structure-notation: Nc1ncc([N+](=O)[O-])s1
experimental-system: rodent lifetime carcinogenesis bioassay, tumor incidence TD50
result-unit: mg/kg/day
TD50: 63.5

Summary line: Cc1cc(O)c2c(c1)C(=O)c1cc(O)cc(O)c1C2=O , rodent lifetime carcinogenesis bioassay, tumor incidence TD50, reported TD50 = 65800

The measured TD50 that CCCNC(=O)NS(=O)(=O)c1ccc(Cl)cc1 showed for rodent lifetime carcinogenesis bioassay, tumor incidence TD50 is 1440

Field TD50 (rodent lifetime carcinogenesis bioassay, tumor incidence TD50), entry Cc1cc(O)c(C(C)(C)C)cc1Sc1cc(C(C)(C)C)c(O)cc1C : 2020

// molecule Nc1c(Br)cc(Br)c2c1C(=O)c1ccccc1C2=O , assay rodent lifetime carcinogenesis bioassay, tumor incidence TD50, TD50 value: 1990

====

// reported TD50 for each item listed
Tested on: rodent lifetime carcinogenesis bioassay, tumor incidence TD50
Assay: carcinogenic potency in animals, long-term in vivo studies, CPDB compilation (AID 1745844)
Settings: rat; strain F344/DuCrj; females; in feed; site: liver; lesion: hepatocellular adenoma; dosed 104 weeks; study length 104 weeks
Calls of active or inactive are those of the source. No rule for the calls is given here.

compound: Nc1ccc(N(CCO)CCO)cc1
TD50: 7310 mg/kg/day (inactive)

Summary line: COC(=O)C1=C(C)NC(C)=C(C(=O)OCCc2ccc(N3CCN(C(c4ccccc4)c4ccccc4)CC3)cc2)C1c1cccc([N+](=O)[O-])c1 (configuration not stated) , rodent lifetime carcinogenesis bioassay, tumor incidence TD50, reported TD50 = 509 mg/kg/day (inactive)

====

Test system: rodent lifetime carcinogenesis bioassay, tumor incidence TD50
Experiment: carcinogenic potency in animals, long-term in vivo studies, CPDB compilation (AID 1745844)
Details: rat; strain Sprague-Dawley; males; by gavage; site: forestomach; lesion: several types; types named in the paper; dosed 52 weeks; study length 156 weeks
endpoint-label: TD50

TD50 recorded for this compound, c1ccc(C2CO2)cc1 (stereo unspecified) , is 99.6 mg/kg/day

====

System: rodent lifetime carcinogenesis bioassay, tumor incidence TD50
Test: carcinogenic potency in animals, long-term in vivo studies, CPDB compilation (AID 1745844)
Conditions: rat; strain Fischer 344; males; in feed; site: liver; lesion: several types; types named in the paper; dosed 104 weeks; study length 104 weeks
endpoint-label: TD50

In plain terms, CN(C)CCOC(C)(c1ccccc1)c1ccccn1 (stereo unspecified) has a documented TD50 of 1610 mg/kg/day

====

System: rodent lifetime carcinogenesis bioassay, tumor incidence TD50
Experiment: carcinogenic potency in animals, long-term in vivo studies, CPDB compilation (AID 1745844)
Settings: rat; strain F344/DuCrj; males; in feed; site: liver; lesion: several types; types named in the paper; dosed 56 weeks; study length 56 weeks
endpoint-label: TD50

For Cc1cnc2ccc3c(nc(N)n3C)c2n1 on rodent lifetime carcinogenesis bioassay, tumor incidence TD50, measured TD50 was 1.24 mg/kg/day

====

Test system: rodent lifetime carcinogenesis bioassay, tumor incidence TD50
Assay: carcinogenic potency in animals, long-term in vivo studies, CPDB compilation (AID 1745844)
Settings: rat; strain F344/DuCrj; females; in feed; site: clitoral gland; lesion: squamous-cell carcinoma; dosed 61 weeks; study length 61 weeks
endpoint-label: TD50

Please fill in: TD50 reported for Cc1cnc2ccc3c(nc(N)n3C)c2n1 = 4.72 mg/kg/day

====

System: rodent lifetime carcinogenesis bioassay, tumor incidence TD50
Experiment: carcinogenic potency in animals, long-term in vivo studies, CPDB compilation (AID 1745844)
Details: mouse; strain B6C3F1; males; inhaled; site: forestomach; lesion: squamous-cell carcinoma + squamous-cell papilloma; dosed 13 weeks; study length 104 weeks
endpoint-label: TD50

The recorded TD50 for entry C=CC=C equals 44.8 mg/kg/day

====

Tested on: rodent lifetime carcinogenesis bioassay, tumor incidence TD50
Assay: carcinogenic potency in animals, long-term in vivo studies, CPDB compilation (AID 1745844)
Conditions: rat; strain Fischer 344; males; in drinking water; site: preputial gland; lesion: carcinoma + carcinoma, bilateral; dosed 97 weeks; study length 97 weeks
endpoint-label: TD50 (mg/kg/day)
Please respond with the number in mg/kg/day and leave the unit unwritten.

Item: COc1cc(-c2ccc(N=Nc3c(S(=O)(=O)O)cc4cc(S(=O)(=O)O)cc(N)c4c3O)c(OC)c2)ccc1N=Nc1c(S(=O)(=O)O)cc2cc(S(=O)(=O)O)cc(N)c2c1O | TD50: 207

====

Quick list: TD50 per entry.
Test system: rodent lifetime carcinogenesis bioassay, tumor incidence TD50
Assay: carcinogenic potency in animals, long-term in vivo studies, CPDB compilation (AID 1745844)
Conditions: rat; strain Fischer 344; males; in feed; site: urinary bladder; lesion: transitional-cell papilloma; dosed 103 weeks; study length 104 weeks

structure-notation: Nc1c(Br)cc(Br)c2c1C(=O)c1ccccc1C2=O
TD50: 846 mg/kg/day

Kindly review the next compound as well.
Measured TD50, Nc1ccc(N)c2c1C(=O)c1c(N)ccc(N)c1C2=O : 370 mg/kg/day

====

System: rodent lifetime carcinogenesis bioassay, tumor incidence TD50
Assay: carcinogenic potency in animals, long-term in vivo studies, CPDB compilation (AID 1745844)
Conditions: mouse; strain B6C3F1; males; by gavage; site: lung; lesion: alveolar/bronchiolar adenoma + alveolar/bronchiolar carcinoma; dosed 103 weeks; study length 103 weeks
endpoint-label: TD50 (mg/kg/day)
Write the value in mg/kg/day as a bare number.

Kindly note the recorded TD50 for COP(=O)(OC)OC , which is 61300

====

Tested on: rodent lifetime carcinogenesis bioassay, tumor incidence TD50
Experiment: carcinogenic potency in animals, long-term in vivo studies, CPDB compilation (AID 1745844)
Conditions: hamster; strain Syrian Golden; males; in drinking water; site: liver; lesion: reticulum-cell sarcoma; dosed 104 weeks; study length 104 weeks
endpoint-label: TD50 (mg/kg/day)
The reply should contain only the number, in mg/kg/day.

Record for O=S(=O)(O)O under target or system rodent lifetime carcinogenesis bioassay, tumor incidence TD50: TD50 reported as 2590

====

Test system: rodent lifetime carcinogenesis bioassay, tumor incidence TD50
Test: carcinogenic potency in animals, long-term in vivo studies, CPDB compilation (AID 1745844)
Conditions: mouse; strain B6C3F1; females; in feed; site: liver; lesion: hepatocellular carcinoma; dosed 94 weeks; study length 94 weeks
endpoint-label: TD50

Noted for NC(=S)NNC(N)=S : its TD50 reads 5670 mg/kg/day

====

Tested on: rodent lifetime carcinogenesis bioassay, tumor incidence TD50
Assay: carcinogenic potency in animals, long-term in vivo studies, CPDB compilation (AID 1745844)
Conditions: mouse; strain B6C3F1; females; by gavage; site: lung; lesion: alveolar/bronchiolar adenoma + alveolar/bronchiolar carcinoma; dosed 103 weeks; study length 103 weeks
endpoint-label: TD50

TD50 of COP(=O)(OC)OC , assay on rodent lifetime carcinogenesis bioassay, tumor incidence TD50, is 3900 mg/kg/day

====

System: rodent lifetime carcinogenesis bioassay, tumor incidence TD50
Assay: carcinogenic potency in animals, long-term in vivo studies, CPDB compilation (AID 1745844)
Conditions: rat; strain Fischer 344; females; in drinking water; site: duodenum + ileum + jejunum; lesion: adenocarcinoma + adenomatous polyp + mucinous adenocarcinoma + mucinous cystadenocarcinoma; dosed 60 weeks; study length 60 weeks
endpoint-label: TD50

Input Cc1cc(-c2ccc(N)c(C)c2)ccc1N . Output TD50: 11 mg/kg/day

====

Tested on: rodent lifetime carcinogenesis bioassay, tumor incidence TD50
Test: carcinogenic potency in animals, long-term in vivo studies, CPDB compilation (AID 1745844)
Settings: hamster; strain Syrian Golden; females; in drinking water; site: cecum; lesion: polypoid adenoma; dosed 67 weeks; study length 67 weeks
endpoint-label: TD50 (mg/kg/day)
Give just the numeric value; mg/kg/day need not be written.

Note to self: TD50 recorded for CNNC was 2.08

====

Tested on: rodent lifetime carcinogenesis bioassay, tumor incidence TD50
Assay: carcinogenic potency in animals, long-term in vivo studies, CPDB compilation (AID 1745844)
Conditions: mouse; strain B6C3F1; males; in feed; site: all sites; lesion: histiocytic sarcoma; dosed 104 weeks; study length 104 weeks
endpoint-label: TD50

The reported TD50 of the compound O=C1OC(c2ccc(O)cc2)(c2ccc(O)cc2)c2ccccc21 was 2680 mg/kg/day

====

System: rodent lifetime carcinogenesis bioassay, tumor incidence TD50
Assay: carcinogenic potency in animals, long-term in vivo studies, CPDB compilation (AID 1745844)
Details: rat; strain Fischer 344; females; in drinking water; site: tongue; lesion: squamous-cell papilloma; dosed 98 weeks; study length 104 weeks
endpoint-label: TD50 (mg/kg/day)
Only the number, expressed in mg/kg/day, is required.

Measured TD50 of Cc1ccc(S(=O)(=O)Oc2ccc(N=Nc3ccc(-c4ccc(N=Nc5c(O)ccc6cc(S(=O)(=O)O)cc(S(=O)(=O)O)c56)c(C)c4)cc3C)cc2)cc1 : 75

Provenance of the data: PubChem BioAssay AID1745844
